# TARGET_ENTITY: UniProt P30518
# Sequence (P30518 whole entry): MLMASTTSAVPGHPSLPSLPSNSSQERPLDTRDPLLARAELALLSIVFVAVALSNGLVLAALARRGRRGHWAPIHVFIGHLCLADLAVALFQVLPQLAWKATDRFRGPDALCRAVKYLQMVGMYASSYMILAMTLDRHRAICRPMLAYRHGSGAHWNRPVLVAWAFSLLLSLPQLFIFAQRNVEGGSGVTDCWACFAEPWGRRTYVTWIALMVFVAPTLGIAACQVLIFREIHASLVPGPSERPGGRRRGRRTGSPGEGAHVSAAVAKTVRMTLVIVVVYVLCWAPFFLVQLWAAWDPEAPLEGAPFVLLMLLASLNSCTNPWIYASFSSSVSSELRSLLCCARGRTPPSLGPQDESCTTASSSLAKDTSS
# EXPERIMENT_SUMMARY: Cellular in vitro assay for determining vasopressin receptor activity, V2 receptor cell line (CRE-luciferase)
# TEST_PARAMETERS: CHO cell line transfected with human V2 receptor; [Arg8]-vasopressin at EC50; compounds of the invention (Table 1A); read-out: IC50 hV2
METRIC_NAME: log10(IC50) (log10 of the value in nM)
Each number you see is log10 of IC50, and the unit inside the log is nM.

Form field log10(IC50) for item CC(O)c1nc(Cn2nc(-c3ccc(Cl)cc3)n(C[C@H](O)C(F)(F)F)c2=O)nn1-c1cccc(F)c1F (mixture of isomers) [Example 64] on UniProt P30518: 0.71

Result for CC(O)c1nc(Cn2nc(-c3ccc(Cl)cc3)n(C[C@H](O)C(F)(F)F)c2=O)nn1-c1cc(F)cc(Cl)c1 (single isomer, unassigned) [Example 14] , tested on UniProt P30518, log10(IC50): -0.40

Summary line: CC(O)c1nc(Cn2nc(-c3ccc(Cl)cc3)n(C[C@H](O)C(F)(F)F)c2=O)nn1-c1cccc(C(F)(F)F)c1 (single isomer, unassigned) [Example 23] , UniProt P30518, reported log10(IC50) = -0.05

The reported UniProt P30518 log10(IC50) of CC(O)c1nc(Cn2nc(-c3ccc(Cl)cc3)n(C[C@H](O)C(F)(F)F)c2=O)nn1-c1ccccc1F (single isomer, unassigned) [Example 42] is 1.10

Readout log10(IC50) for CC(O)c1nc(Cn2nc(-c3ccc(Cl)cc3)n(C[C@H](O)C(F)(F)F)c2=O)nn1-c1cc(F)ccc1Cl (mixture of isomers) [Example 58] , test system UniProt P30518, was 0.18

Form field log10(IC50) for item CC(O)c1nc(Cn2nc(-c3ccc(Cl)cc3)n(C[C@H](O)C(F)(F)F)c2=O)nn1-c1cc(F)cc(F)c1 (mixture of isomers) [Example 25] on UniProt P30518: 0.56
